Provide the recorded IC50 at 72 h for the entries that follow.
- assay_comment: Cytotoxicity against human GES1 cells assessed as reduction in cell viability incubated for 72 hrs by MTT assay
- Format: toxicity, cell-based
The answer is to be given in µM; state only the numeric part.

Could you please provide reported IC50 at 72 h for Cc1nc2cc(-c3cc(NS(C)(=O)=O)ccc3Oc3ccc(F)cc3F)ccc2[nH]c1=O ? Thanks!
33.5

Could you please provide reported IC50 at 72 h for Cc1nc2cc(-c3cc(NS(C)(=O)=O)ccc3Oc3ccc(Cl)cc3)ccc2[nH]c1=O ? Thanks!
18.1

Could you please provide reported IC50 at 72 h for CCc1nc2cc(-c3cc(NS(C)(=O)=O)ccc3Oc3ccc(F)cc3F)ccc2[nH]c1=O ? Thanks!
29.8

Could you please provide reported IC50 at 72 h for CCS(=O)(=O)Nc1ccc(Oc2ccc(F)cc2F)c(-c2ccc3[nH]c(=O)c(C)nc3c2)c1 ? Thanks!
20.2

Could you please provide reported IC50 at 72 h for CC(=O)Nc1ccc(Oc2ccc(F)cc2F)c(-c2ccc3[nH]c(=O)c(C)nc3c2)c1 ? Thanks!
57.2

Could you please provide reported IC50 at 72 h for CCS(=O)(=O)Nc1ccc(Oc2ccc(F)cc2F)c(-c2cn(C)c(=O)c3[nH]ccc23)c1 [MIVEBRESIB] ? Thanks!
4.31

Could you please provide reported IC50 at 72 h for Cc1nc2cc(-c3cc(CS(C)(=O)=O)ccc3Oc3ccc(F)cc3F)ccc2[nH]c1=O ? Thanks!
36.1

Could you please provide reported IC50 at 72 h for Cc1nc2cc(-c3cc(C(C)O)ccc3Oc3ccc(F)cc3F)ccc2[nH]c1=O (stereo unspecified) ? Thanks!
30.8

Could you please provide reported IC50 at 72 h for Cc1nc2cc(-c3cc(NS(C)(=O)=O)ccc3Oc3ccc(F)cc3)ccc2[nH]c1=O ? Thanks!
36.5

Could you please provide reported IC50 at 72 h for CCS(=O)(=O)Cc1ccc(Oc2ccc(F)cc2F)c(-c2ccc3[nH]c(=O)c(C)nc3c2)c1 ? Thanks!
45.8

----------
- target_or_system: Bromodomain-containing protein 4 (Homo sapiens)
- assay_comment: Inhibition of BRD4 BD1 (unknown origin) by TR-FRET assay
metric: pIC50
On this scale, pIC50 is minus log10 of a concentration expressed in M (mol/L).

Retrieve pIC50 on Bromodomain-containing protein 4 (Homo sapiens); query COc1cc(Cl)ccc1Oc1ccc(NS(C)(=O)=O)cc1-c1ccc2[nH]c(=O)c(C)nc2c1
5.63

Retrieve pIC50 on Bromodomain-containing protein 4 (Homo sapiens); query Cc1nc2cc(-c3cc(C(C)(C)O)ccc3Oc3ccc(F)cc3F)ccc2[nH]c1=O
5.95

Retrieve pIC50 on Bromodomain-containing protein 4 (Homo sapiens); query CCS(=O)(=O)Nc1ccc(Oc2ccc(F)cc2F)c(-c2ccc3[nH]c(=O)c(C)nc3c2)c1
7.32

Retrieve pIC50 on Bromodomain-containing protein 4 (Homo sapiens); query CCS(=O)(=O)Cc1ccc(Oc2ccc(F)cc2F)c(-c2ccc3[nH]c(=O)c(C)nc3c2)c1
6.11

Retrieve pIC50 on Bromodomain-containing protein 4 (Homo sapiens); query Cc1nc2cc(-c3cc(C(=O)N4CCN(C)CC4)ccc3Oc3ccc(F)cc3F)ccc2[nH]c1=O
5.88

Retrieve pIC50 on Bromodomain-containing protein 4 (Homo sapiens); query Cc1nc2cc(-c3cc(NS(C)(=O)=O)ccc3Oc3ccc(F)cc3)ccc2[nH]c1=O
6.99

Retrieve pIC50 on Bromodomain-containing protein 4 (Homo sapiens); query CC(=O)Nc1ccc(Oc2ccc(F)cc2F)c(-c2ccc3[nH]c(=O)c(C)nc3c2)c1
7.08

Retrieve pIC50 on Bromodomain-containing protein 4 (Homo sapiens); query Cc1nc2cc(-c3cc(NS(C)(=O)=O)ccc3Oc3ccccc3C(F)(F)F)ccc2[nH]c1=O
5.58

Retrieve pIC50 on Bromodomain-containing protein 4 (Homo sapiens); query CCS(=O)(=O)Nc1ccc(Oc2ccc(F)cc2F)c(-c2cn(C)c(=O)c3[nH]ccc23)c1
9.15

----------
Provide the recorded IC50 for the entries that follow.
- Test system: HT-29
- assay_comment: Antiproliferative activity against human HT-29 cells assessed as reduction in cell viability incubated for 72 hrs by MTT assay
- Type: functional, cell-based
- conditions_used: HT-29, 72 h
The answer is to be given in µM; state only the numeric part.

Retrieve IC50 on HT-29; query CCS(=O)(=O)Nc1ccc(Oc2ccc(F)cc2F)c(-c2ccc3[nH]c(=O)c(C)nc3c2)c1
16.8

Retrieve IC50 on HT-29; query CCS(=O)(=O)Nc1ccc(Oc2ccc(F)cc2F)c(-c2cn(C)c(=O)c3[nH]ccc23)c1 [MIVEBRESIB]
1.84

Retrieve IC50 on HT-29; query CCS(=O)(=O)Cc1ccc(Oc2ccc(F)cc2F)c(-c2ccc3[nH]c(=O)c(C)nc3c2)c1
25.1

Retrieve IC50 on HT-29; query Cc1nc2cc(-c3cc(NS(C)(=O)=O)ccc3Oc3ccc(Cl)cc3)ccc2[nH]c1=O
8.09

Retrieve IC50 on HT-29; query Cc1nc2cc(-c3cc(C(=O)NCCO)ccc3Oc3ccc(F)cc3F)ccc2[nH]c1=O
15.1

Retrieve IC50 on HT-29; query CCc1nc2cc(-c3cc(NS(C)(=O)=O)ccc3Oc3ccc(F)cc3F)ccc2[nH]c1=O
16.5

Retrieve IC50 on HT-29; query Cc1nc2cc(-c3cc(C(C)O)ccc3Oc3ccc(F)cc3F)ccc2[nH]c1=O (stereo unspecified)
20.2

Retrieve IC50 on HT-29; query Cc1nc2cc(-c3cc(CS(C)(=O)=O)ccc3Oc3ccc(F)cc3F)ccc2[nH]c1=O
17.6

Retrieve IC50 on HT-29; query Cc1nc2cc(-c3cc(NS(C)(=O)=O)ccc3Oc3ccc(F)cc3F)ccc2[nH]c1=O
6.86

Retrieve IC50 on HT-29; query Cc1nc2cc(-c3cc(NS(C)(=O)=O)ccc3Oc3ccc(F)cc3)ccc2[nH]c1=O
6.4

----------
Provide the recorded IC50 for the entries that follow.
- target_or_system: Bromodomain-containing protein 4 (Homo sapiens, UniProt O60885)
- assay_comment: Inhibition of BRD4 BD1 (unknown origin) by TR-FRET assay
The answer is to be given in nM; state only the numeric part.

Retrieve IC50 on Bromodomain-containing protein 4 (Homo sapiens, UniProt O60885); query COc1ccccc1Oc1ccc(NS(C)(=O)=O)cc1-c1ccc2[nH]c(=O)c(C)nc2c1
2830

Retrieve IC50 on Bromodomain-containing protein 4 (Homo sapiens, UniProt O60885); query COC(=O)c1ccc(Oc2ccc(F)cc2F)c(-c2ccc3[nH]c(=O)c(C)nc3c2)c1
4220

Retrieve IC50 on Bromodomain-containing protein 4 (Homo sapiens, UniProt O60885); query Cc1nc2cc(-c3cc(C=O)ccc3Oc3ccc(F)cc3F)ccc2[nH]c1=O
2510

Retrieve IC50 on Bromodomain-containing protein 4 (Homo sapiens, UniProt O60885); query Cc1nc2cc(-c3cc(NS(C)(=O)=O)ccc3Oc3ccc(F)cc3Cl)ccc2[nH]c1=O
1560

Retrieve IC50 on Bromodomain-containing protein 4 (Homo sapiens, UniProt O60885); query Cc1nc2cc(-c3cc(C(C)O)ccc3Oc3ccc(F)cc3F)ccc2[nH]c1=O (stereo unspecified)
406

Retrieve IC50 on Bromodomain-containing protein 4 (Homo sapiens, UniProt O60885); query Cc1ccccc1Oc1ccc(NS(C)(=O)=O)cc1-c1ccc2[nH]c(=O)c(C)nc2c1
2120

Retrieve IC50 on Bromodomain-containing protein 4 (Homo sapiens, UniProt O60885); query Cc1nc2cc(-c3cc(CS(C)(=O)=O)ccc3Oc3ccc(F)cc3F)ccc2[nH]c1=O
753

Retrieve IC50 on Bromodomain-containing protein 4 (Homo sapiens, UniProt O60885); query Cc1nc2cc(-c3cc(C(=O)NCCO)ccc3Oc3ccc(F)cc3F)ccc2[nH]c1=O
621

Retrieve IC50 on Bromodomain-containing protein 4 (Homo sapiens, UniProt O60885); query Cc1nc2cc(-c3cc(S(C)(=O)=O)ccc3Oc3ccc(F)cc3F)ccc2[nH]c1=O
3970

Retrieve IC50 on Bromodomain-containing protein 4 (Homo sapiens, UniProt O60885); query Cc1nc2cc(-c3cc(C(=O)N4CCOCC4)ccc3Oc3ccc(F)cc3F)ccc2[nH]c1=O
1480

Retrieve IC50 on Bromodomain-containing protein 4 (Homo sapiens, UniProt O60885); query Cc1nc2cc(-c3cc(NS(C)(=O)=O)ccc3Oc3ccc(Cl)cc3)ccc2[nH]c1=O
341
